Data provenance: patent US11780845B2

Biological target: UniProt:P21802
Test: Biochemical FGFR2 Caliper assay

compound	target-system	IC50
C=CC(=O)Nc1ccc(-c2c(C3=CC[C@H](C(=O)N4CCCC4)CC3)c3c(N)ncnc3n2C)c(C)c1 (single isomer, unassigned)	UniProt:P21802	< 100 nM
C=C(C)C(=O)Nc1ccc(-c2c(C3=CC[C@H](C(=O)N4CC[C@@H]5C[C@@H]54)CC3)c3c(N)ncnc3n2C)cc1 (single isomer, unassigned)	UniProt:P21802	< 100 nM
C#Cc1ccc(-c2c(C3=CC[C@H](C(=O)N4CCC[C@H]4COC)CC3)c3c(N)ncnc3n2C)c(C)n1 (single isomer, unassigned)	UniProt:P21802	< 100 nM

---

Listing of recorded IC50 by entry.
Molecular target: UniProtKB P21802
Experiment: FGFR2 Biochemical Caliper Assay
endpoint-name: IC50

molecule	experimental-value
C=C(C)C(=O)Nc1ccc(-c2c(-c3ccc4c(c3)CC(NC(C)=O)C4)c3c(N)ncnc3n2C)cc1 (stereo not shown)	1000 to 100000 nM
C=C(C)C(=O)Nc1ccc(-c2c(-c3ccc(C(=O)N4CCCC4)cc3)c3c(N)ncnc3n2C)c(C2CC2)c1 [Example 518]	< 100 nM
C=C(C)C(=O)Nc1ccc(-c2c(-c3ccc(-n4cncn4)nc3)c3c(N)ncnc3n2C)cc1	1000 to 100000 nM
C=CC(=O)N1CCC(c2c(-c3cnn(C(C)C)c3)c3c(N)ncnc3n2C)C1 (stereo not shown)	1000 to 100000 nM
C=CC(=O)N1CCC(n2cc(-c3c(-c4ccc(Oc5ccccc5)cc4)c4c(N)ncnc4n3C)cn2)CC1	< 100 nM
C=CC(=O)N1CCC(c2c(-c3cnn(-c4ccccn4)c3)c3c(N)ncnc3n2C)C1 (stereo not shown)	1000 to 100000 nM
C=C(C)C(=O)Nc1ccc(-c2c(-c3ccc(C(=O)N(C)C4CCOC4)cc3)c3c(N)ncnc3n2C)cc1 (stereo not shown)	1000 to 100000 nM

---

Target: FGFR2 (Homo sapiens (Human))
Sequence (P21802 22-821): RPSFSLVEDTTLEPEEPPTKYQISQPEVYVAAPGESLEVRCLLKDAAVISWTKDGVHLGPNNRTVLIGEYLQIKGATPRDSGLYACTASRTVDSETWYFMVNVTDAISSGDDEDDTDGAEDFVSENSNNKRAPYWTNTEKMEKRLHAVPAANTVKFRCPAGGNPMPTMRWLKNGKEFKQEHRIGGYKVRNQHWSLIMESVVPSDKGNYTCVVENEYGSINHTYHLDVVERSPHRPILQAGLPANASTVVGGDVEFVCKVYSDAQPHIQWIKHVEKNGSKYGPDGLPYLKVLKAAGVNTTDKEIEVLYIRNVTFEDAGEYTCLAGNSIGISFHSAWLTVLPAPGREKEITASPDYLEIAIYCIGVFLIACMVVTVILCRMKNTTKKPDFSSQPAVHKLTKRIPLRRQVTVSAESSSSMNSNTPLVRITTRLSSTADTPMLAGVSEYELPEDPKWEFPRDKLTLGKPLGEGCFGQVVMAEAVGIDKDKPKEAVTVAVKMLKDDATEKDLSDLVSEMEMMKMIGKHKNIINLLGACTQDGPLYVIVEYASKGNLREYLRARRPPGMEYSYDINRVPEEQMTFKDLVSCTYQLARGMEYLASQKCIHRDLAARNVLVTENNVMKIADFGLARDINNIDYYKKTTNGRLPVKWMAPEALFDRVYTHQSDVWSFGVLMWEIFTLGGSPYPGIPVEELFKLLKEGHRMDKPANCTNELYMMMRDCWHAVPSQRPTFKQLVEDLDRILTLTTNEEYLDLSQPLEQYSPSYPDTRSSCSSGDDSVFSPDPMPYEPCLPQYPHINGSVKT
Assay: FGFR2 Biochemical Caliper Assay

compound	IC50
C=C(C)C(=O)Nc1ccc(-c2c(C3=CCN(C(=O)NC)CC3)c3c(N)ncnc3n2C)cc1	1 to 100 µM
C=C(C)C(=O)Nc1ccc(-c2c(-c3ccc(C(=O)NC(C)CO)cc3)c3c(N)ncnc3n2C)cc1 (stereo not drawn)	< 0.1 µM
C=CC(=O)N1CCC(c2c(-c3cnn(CCN(C)C)c3)c3c(N)ncnc3n2C)C1 (stereo not drawn)	1 to 100 µM
C=CC(=O)N1CCC(n2cc(-c3c(-c4ccc(Oc5cccc(OC)n5)cc4)c4c(N)ncnc4n3C)cn2)CC1	< 0.1 µM
Cn1c(-c2ccc(NC(=O)C=C3CCC3)cc2)c(-c2ccc(C(=O)N3CCCC3)cc2)c2c(N)ncnc21	1 to 100 µM
C=C(C)C(=O)Nc1ccc(-c2c(-c3ccc(Oc4cccc(C)n4)cc3)c3c(N)ncnc3n2C)cc1C	0.1 to 0.25 µM
C=C(C)C(=O)Nc1ccc(-c2c(-c3ccc(Oc4ccc(Cl)c(C)n4)cc3)c3c(N)ncnc3n2C)cc1	0.25 to 1 µM
C=C(C)C(=O)Nc1ccc(-c2c(-c3ccc(C(=O)NCC(C)(C)OC)nc3)c3c(N)ncnc3n2C)cc1	1 to 100 µM
CC#CC(=O)N1CCC(c2[nH]c3ncnc(N)c3c2-c2ccc(C(=O)N3CCCC3)cc2)C1 (stereo not drawn)	1 to 100 µM
C=C(C)C(=O)Nc1ccc(-c2c(-c3cnc4c(c3)OCCN4C)c3c(N)ncnc3n2C)cc1	0.1 to 0.25 µM
C=CC(=O)N1CC=C(c2c(-c3ccc(Oc4cccc(CC)n4)c(OC)c3)c3c(N)ncnc3n2C)CC1	< 0.1 µM
C=CC(=O)N1CCC(n2cc(-c3c(-c4ccc(Oc5ccccc5)c(OC)c4)c4c(N)ncnc4n3C)cn2)CC1	0.1 to 0.25 µM
C=C(C)C(=O)Nc1ccc(-c2c(-c3ccc4[nH]c(C(=O)N(C)C)cc4c3)c3c(N)ncnc3n2C)cc1	1 to 100 µM
C=CC(=O)N1CCC(n2cc(-c3c(-c4ccccc4OC)c4c(N)ncnc4n3C)cn2)CC1	1 to 100 µM
C=C(C)C(=O)Nc1ccc(-c2c(-c3cc(C)c(Oc4nccc(C)n4)c(OC)c3)c3c(N)ncnc3n2C)cc1	0.1 to 0.25 µM
